Ref: ChEMBL document CHEMBL1145582

# Method: Binding affinity at 3'-Fl-18-Rh-C11U T box antiterminator model RNA by FRET assay
# Set-up: species or system Bacillus subtilis
Endpoint: pKd
Give bare numbers, as −log10 of the molar value.

Completed entries (count: 3):
Q) For the compound O=C(Cc1ccccc1)OC[C@H]1OC(=O)N[C@@H]1CN1CCN(c2ccccc2)CC1 , what pKd is on record?
A) 4.00

Q) For the compound O=C(Cc1ccccc1)OC[C@H]1OC(=O)N[C@@H]1Cc1ccccc1 , what pKd is on record?
A) 3.90

Q) For the compound CCCCCCCC(=O)OC[C@H]1OC(=O)N[C@@H]1CN(C)c1ccccc1 , what pKd is on record?
A) 5.39

We next turn to a different compound, shown below.
Q) For the compound CN(C[C@H]1NC(=O)O[C@@H]1COC(=O)Cc1ccccc1)c1ccccc1 , what pKd is on record?
A) 3.91
